Tested on: KE-37 (T-Lymphoblastic Leukemia);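 also: after 72 h of two-drug dosing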
Assay: Bliss excess, mean over the matrix (fraction); higher = more synergy
Would you kindly list Bliss excess for each of these compounds?
# answer = number (no unit)

QUERY: What measured Bliss excess is associated with CN(C)CCCOc1ccc(-c2ccc3ncc4c(c3c2)n(C2CCOCC2)c(=O)n4C)cn1 [AZD0156] + O=C(c1cc(Cc2n[nH]c(=O)c3ccccc23)ccc1F)N1CCN(C(=O)C2CC2)CC1 [Olaparib] (first compound max 3 µM, partner max 3 µM) on KE-37 (T-Lymphoblastic Leukemia)?
RESULT: 0.0951

QUERY: What measured Bliss excess is associated with CC(=O)c1c(C)c2cnc(Nc3ccc(N4CCNCC4)cn3)nc2n(C2CCCC2)c1=O [Palbociclib] + CN(CC[C@H](CSC1=CC=CC=C1)NC2=C(C=C(C=C2)S(=O)(=O)NC(=O)C3=CC=C(C=C3)N4CCC(CC4)[C@H](C5=CC=CC=C5C6=CC=C(C=C6)Cl)O)S(=O)(=O)C(F)(F)F)CCO [AZD4320] (first compound max 10 µM, 7x7, partner max 1 µM) on KE-37 (T-Lymphoblastic Leukemia)?
RESULT: -0.0137

QUERY: What measured Bliss excess is associated with Cn1cnc2c(F)c(Nc3ccc(Br)cc3Cl)c(C(=O)NOCCO)cc21 [Selumetinib] + C=CCn1c(=O)c2cnc(Nc3ccc(N4CCN(C)CC4)cc3)nc2n1-c1cccc(C(C)(C)O)n1 [AZD1775] (first compound max 10 µM, partner max 1 µM) on KE-37 (T-Lymphoblastic Leukemia)?
RESULT: 0.0083

Provenance of the data: the supplement of paper PMC11061612
